System: OVCAR-4
Test: NCI tumour cell line growth inhibition, 48 h
Calls of active or inactive are those of the source. No stated cut-off is given here; in the data, active = GI50 up to about 1.1 µM and inactive = higher.

- item smiles: "COc1ccc2ccnc(Cc3ccc(OCc4ccccc4)c(OC)c3)c2c1"
  GI50: "14.2 µM (inactive)"
- item smiles: "CCc1nn(S(=O)(=O)c2ccc(C)cc2)c2c1CS(=O)(=O)CC2"
  GI50: "> 100 µM (inactive)"
- item smiles: "Cn1c(=S)[nH]c2sc3c(c2c1=O)CCSC3"
  GI50: "43 µM (inactive)"
- item smiles: "CNC(=O)N(CCC#N)CCCN(C(=O)NC)c1ccccc1"
  GI50: "> 100 µM (inactive)"

* * *

Test system: SNB-19
Experiment: NCI tumour cell line growth inhibition, 48 h
The source made the active and inactive calls. Rule as the data show it: active = GI50 up to about 1.1 µM and inactive = higher. Starred links: 1 amine or outer side, 2 acyl side, 3 side chain; linkers in the order of their positions; H or OH if unused. Positions of bridges follow the written chain, without caps; N, C: chain ends. Non-standard residues stand in square brackets, D forms with d. Residues, ends and D or L forms follow the SMILES beside them. Chains are numbered I, II in the order given. Actinocin(1to9) = Cc1c2oc3c(C)ccc(C(=O)[*:2])c3nc-2c(C(=O)[*:1])c(N)c1=O; NMeV = CN[CH](C(=O)O)C(C)C; Sar = CNCC(=O)O
Possible outcomes: t for active, f for inactive

- compound: "CC(C)(C)OC(=O)N1CCC[C@H]1CSC[C@@H]1CCCN1C(=O)OC(C)(C)C"
  group label: "f"
- compound: "CCC(C)C1NC(=O)C(NC(=O)c2c3nc4c(C(=O)NC5C(=O)NC(C(C)CC)C(=O)N6CCCC6C(=O)N(C)CC(=O)N(C)C(C(C)C)C(=O)OC5C)ccc(C)c4oc-3c(C)c(=O)c2N)C(C)OC(=O)C(C(C)C)N(C)C(=O)CN(C)C(=O)C2CCCN2C1=O (stereo unspecified) (I: TIP[Sar][NMeV] / II: TIP[Sar][NMeV]; ester I:1-I:C, II:1-II:C; linker I:N-II:N via Actinocin(1to9); configuration not given here)"
  group label: "t"
- compound: "Cc1cc(C)nc(NS(=O)(=O)c2ccc(NC(=O)c3ccc4nc5ccccc5c(Nc5ccc(S(=O)(=O)N=C(N)N)cc5)c4c3)cc2)n1"
  group label: "f"
- compound: "Clc1ccc(Cl)c(NNc2cc(Cl)ccc2Cl)c1"
  group label: "f"
- compound: "Cc1ccc(NC(=O)CC/C(CC(=O)C(C)(C)C)=N/NC(=O)C(N)=O)cc1C"
  group label: "f"
- compound: "CS(=O)(=O)OCCN1CCN(C(=O)c2ccc(Cl)c3c(Nc4ccc(S(=O)(=O)N=C(N)N)cc4)c4ccccc4nc23)CC1"
  group label: "f"
- compound: "CCCCCCCCCC1CC(=O)NCC(=O)NC(C(C)C)C(=O)NC(CC(C)C)C(=O)NC(C)C(=O)NC(C(C)C)C(=O)O1 (stereo unspecified)"
  group label: "f"
- compound: "CC1=C(C)CC(C#N)(C#N)C(C#N)(C#N)C1"
  group label: "f"
- compound: "CCC(=O)O[C@@H]1C2C(OC(C)=O)C34COC(C)([C@@H]3C3C(C[C@]3(C)OC(C)=O)[C@@H](OC(=O)c3ccccc3)C4=O)[C@H](OC(C)=O)[C@@]2(OC(C)=O)C[C@@H]1C (stereo partly specified)"
  group label: "f"
- compound: "O=c1nc(Oc2c(F)c(F)c(F)c(F)c2F)ccn1C1OC(CO)C(O)C1O (stereo unspecified)"
  group label: "f"
- compound: "CC(C)=CCC[C@@H](C)c1c2nc3ccccc3sc-2c(C)c(=O)c1O"
  group label: "f"

* * *

Tested on: SR
Assay: NCI tumour cell line growth inhibition, 48 h
Activity calls are given as the source filed them. No stated cut-off is given here; in the data, active = GI50 up to about 1.1 µM and inactive = higher.
Possible outcomes: yes (1) (active), no (0) (inactive)

- compound: "CN(CC(=O)O)Cc1c(O)c(Cl)cc(Cl)c1Cl"
  group label: "no (0)"
- compound: "CCC/C(Cl)=N\\OC(=O)Nc1ccc(F)cc1"
  group label: "no (0)"
- compound: "C=CCC12CC(=O)CCC1CC(=O)C2 (stereo unspecified)"
  group label: "no (0)"
- compound: "O=c1nc(Oc2c(F)c(F)c(F)c(F)c2F)ccn1C1OC(CO)C(O)C1O (stereo unspecified)"
  group label: "no (0)"
- compound: "CC1=C(C)CC(C#N)(C#N)C(C#N)(C#N)C1"
  group label: "yes (1)"
- compound: "COc1cc2c(c(OC)c1OC)-c1ccc(SC)c(=O)cc1[C@@H](O)CC2"
  group label: "yes (1)"
- compound: "S=C1NNC(=S)NN1"
  group label: "yes (1)"
- compound: "CCOC(=O)/C(=N\\OC)C(O)C(F)(F)F (stereo unspecified)"
  group label: "no (0)"
- compound: "CCOC(=O)CCc1cccc2c1oc1c(CCNC(=O)OCC3c4ccccc4-c4ccccc43)cccc12"
  group label: "no (0)"
- compound: "C/C(=C\\c1csc(C)n1)[C@@H]1C[C@@H]2O[C@@H]2CCC[C@H](C)[C@H](O)[C@@H](C)C(=O)C(C)(C)[C@@H](O)CC(=O)O1 [EPOTHILONE A]"
  group label: "yes (1)"
- compound: "Nc1nc(OCC2CCCCC2)c2nc[nH]c2n1"
  group label: "no (0)"
- compound: "N#Cc1cc2cc3c4c(c2oc1=O)CCCN4CCC3"
  group label: "no (0)"
- compound: "CC(C)(C)OC(=O)NCCc1cccc2c1oc1c(CCC(=O)O)cccc12"
  group label: "no (0)"
- compound: "Cc1cnc2c(c1)C(=O)N(c1ccc(Oc3ccccc3)cc1)S2(=O)=O"
  group label: "no (0)"
- compound: "Cc1nc2c(sc3nc4c(cc32)CCC4)c(=O)o1"
  group label: "no (0)"
- compound: "O=C(CN1CCOCC1)Nc1ccc2c(c1)C1Oc3ccccc3CC1CO2 (stereo unspecified)"
  group label: "no (0)"
- compound: "C[Si](C)(OCCS(=O)(=O)O)OC(=C1S(=O)(=O)OCCOS1(=O)=O)c1cccc2ccccc12"
  group label: "no (0)"
- compound: "CCOc1ccc(Nc2nc(C)c(C(=O)/C=C/c3ccc(Cl)cc3Cl)s2)cc1"
  group label: "no (0)"
- compound: "CC(=O)NCCc1c(-c2[nH]c3ccccc3c2CCNC(C)=O)[nH]c2ccccc12"
  group label: "no (0)"
- compound: "CCN(CC)Cc1cc(Nc2ccnc3ccc4nn(C)nc4c23)ccc1O"
  group label: "no (0)"
- compound: "CCOC(=O)/C(C(=O)c1ccccc1)=C1/NCCN1C"
  group label: "no (0)"
- compound: "CC1(c2ccccc2)CC(c2cccc([N+](=O)[O-])c2)=NO1 (stereo unspecified)"
  group label: "no (0)"
- compound: "COc1cc(C(CC(OC)OC)=C(C#N)C#N)cc(OC)c1OC"
  group label: "no (0)"
- compound: "CCOC(=O)c1ccc(Nc2cnc3ccc(C(F)(F)F)cc3n2)cc1"
  group label: "no (0)"
- compound: "Cc1ccc(-c2nc(C)c(C(=O)Nc3ccc(Cl)cc3)s2)cc1"
  group label: "no (0)"
- compound: "O=C(O)CCC/N=C(\\C(=N\\CCCC(=O)O)c1ccccc1)c1ccccc1"
  group label: "no (0)"
- compound: "O=c1[nH]nc(Cc2ccccc2)n1Nc1ccccc1"
  group label: "no (0)"
- compound: "Cc1cc2c(cc1C)[n+]([O-])c(C(=O)CC(=O)C(=O)Nc1ccccc1C)c(C)[n+]2[O-]"
  group label: "no (0)"
- compound: "COc1ccc2c(c1)OCC1=C2Oc2ccccc2C1"
  group label: "no (0)"
- compound: "O=C1N/C(=N\\C2CCCCC2)C2(CCN(CCCC3(c4ccc(F)cc4)OCCO3)CC2)N1c1ccccc1"
  group label: "no (0)"
- compound: "CCOC(=O)CC(C)C(C#N)(OP1(=O)OC(c2ccccc2)C(C)N1C)c1ccccc1 (stereo unspecified)"
  group label: "no (0)"

* * *

# key: entry, value: GI50
Test system: Hs-578T
Test: NCI tumour cell line growth inhibition, 48 h
Activity calls are given as the source filed them. Rule as the data show it: active = GI50 up to about 1.1 µM and inactive = higher.
observable: GI50

- molecule: "c1ccc(N2N=C3N(c4ccccc4)C2N3c2ccccc2)cc1"
  test result: "57.7 µM (inactive)"
- molecule: "S=C1CC(c2ccccc2)Sc2ccccc2N1 (configuration not stated)"
  test result: "25.5 µM (inactive)"
- molecule: "Cc1ccc(-n2nnc(C#N)c2O)cc1"
  test result: "> 100 µM (inactive)"
- molecule: "C/C=C/C(O)P1(=O)N(Cc2ccccc2)[C@@H]2CCCC[C@H]2N1Cc1ccccc1 (some centres not stated)"
  test result: "> 25 µM (inactive)"
- molecule: "CCOC(=O)Nc1ccc(S(=O)(=O)Nn2cnnc2)cc1"
  test result: "57.9 µM (inactive)"
- molecule: "C=CCNC1=C2C[C@@H](C)C[C@@H](OC)[C@H](OC(=O)CN(C)C)[C@H](C)/C=C(\\C)[C@@H](OC(N)=O)[C@H](OC)/C=C\\C=C(/C)C(=O)NC(=CC1=O)C2=O"
  test result: "13.3 µM (inactive)"
- molecule: "COc1cc2c(c(OC)c1OC)-c1ccc(SC)c(=O)cc1[C@@H](O)CC2"
  test result: "0.000261 µM (active)"
- molecule: "O=C(NCCCCNCCCNC(=O)OCc1ccccc1)OCc1ccccc1"
  test result: "31.8 µM (inactive)"
- molecule: "O=C(O)CCC/N=C(\\C(=N\\CCCC(=O)O)c1ccccc1)c1ccccc1"
  test result: "> 100 µM (inactive)"
- molecule: "Cc1nc2c(O)cc3c4c(=O)n(C)c(=O)n(C)c4n(Cc4ccccc4)c3c2nc1C"
  test result: "26.5 µM (inactive)"
- molecule: "CCC1=CC2Cc3nc4cc(Cl)ccc4c(N)c3C(C1)C2 (configuration not stated)"
  test result: "5.08 µM (inactive)"
- molecule: "O=[N+]([O-])c1cc2ccc(N(CCO)CCO)nc2nc1N(CCO)CCO"
  test result: "> 100 µM (inactive)"
- molecule: "COC(=O)C1=C(C(=O)OC)C2OC1c1cc3ccccc3cc12"
  test result: "18.2 µM (inactive)"
- molecule: "Nc1cccc(CCN2CCN(CCCc3ccccc3)CC2)c1"
  test result: "25.1 µM (inactive)"
- molecule: "C/C1=C\\[C@H](C)C[C@H](C)OC(=O)C[C@H](c2ccc(O)cc2)NC(=O)[C@@H](Cc2c(Br)[nH]c3ccccc23)N(C)C(=O)[C@H](C)NC(=O)[C@@H](C)C1 [JASPAMIDE]"
  test result: "0.0611 µM (active)"
- molecule: "CCOC(=O)c1ccc(Nc2cnc3ccc(C(F)(F)F)cc3n2)cc1"
  test result: "17.4 µM (inactive)"
- molecule: "CC(C)(C)[Si](C)(C)OCCCCC1CC2(S(=O)(=O)C3=CC=C=C=C3)ON1CC2S(=O)(=O)c1ccccc1 (configuration not stated)"
  test result: "> 100 µM (inactive)"
